test system: NO production in mouse macrophage; test: NO production inhibitory activity in LPS-stimulated mouse macrophage (Griess reaction); assay type: cell-based; settings: concentration of 50 μM; LPS 1 μg/mL; mean ± SD
Recorded NO production inhibition ratio (%) for the following compounds
Reply with the number and its unit after it.

Consider the worked cases shown below.
COMPOUND: C[C@@H]1C[C@H]2[C@@H]3CCC4=CC(=O)C=C[C@]4(C)[C@@]3(F)[C@@H](O)C[C@]2(C)[C@@]1(O)C(=O)CO [Dexamethasone, reference compound]
NO production inhibition ratio (%): 63.88 ± 2.07%

COMPOUND: CCCCC(OC1OC(CO)C(OC)C(O)C1O)c1cc(OC)cc(=O)o1 (stereo not shown) [Compound 2]
NO production inhibition ratio (%): 62.30 ± 1.46%

So, COc1cc(C(C)=O)ccc1O[C@@H]1O[C@H](CO)[C@@H](OC)[C@H](O)[C@H]1O [Compound 4, Lecaniside D] ? Its NO production inhibition ratio (%) was 68.10 ± 2.07%

So, CCCCC(OC1OC(CO)C(OC)C(O)C1O)c1cc(OC)cc(=O)o1 (stereo not shown) [Compound 3] ? Its NO production inhibition ratio (%) was 68.44 ± 3.75%
